# System: HCT^wt cells
# METHOD_DESCRIPTION: MTT cytotoxicity assay, HCT^wt (p53 pos)
# Type: cell-based
# CONDITION_INFO: 48 h
Output Yes for records whose IC50 is lower than 8 µM, No for records at or above 8 µM.

Example entries and their recorded answers appear below.
# MOLECULE, CATEGORY_LABEL
data = [
    ("CN1C[C@H](c2ccc(Cl)cc2)[C@]2(NC(=S)N(c3ccc(F)cc3)C2=O)[C@]12C(=O)Nc1ccc(Br)cc12 (racemic) [Compound 40]", "No"),
    ("CN1CC(c2ccc(Cl)cc2)C2(NC(=S)N(c3ccc(O)cc3)C2=O)C12C(=O)Nc1ccccc12 (stereo not shown) [Compound 50]", "Yes"),
    ("C#CCOc1ccc(N2C(=O)[C@]3(NC2=S)[C@@H](c2ccc(Cl)cc2)CN(C)[C@@]32C(=O)Nc3ccccc32)cc1 [Compound 35]", "No"),
    ("CN1C[C@H](c2ccccc2)[C@]2(NC(=S)N(c3ccccc3)C2=O)[C@]12C(=O)Nc1ccc(Br)cc12 (racemic) [Compound 5]", "No"),
    ("COc1ccc([C@H]2CN(C)[C@@]3(C(=O)Nc4ccc(Cl)cc43)[C@@]23NC(=S)N(c2ccc(O)cc2)C3=O)cc1OC (racemic) [Compound 57]", "No"),
    ("CN1C[C@H](c2ccccc2Cl)[C@]2(NC(=S)N(c3ccccc3)C2=O)[C@]12C(=O)Nc1ccccc12 (racemic) [Compound 9]", "No"),
]

Please state whether IC50 is below 8 µM for CN1C[C@H](c2ccc(Cl)c(Cl)c2)[C@]2(NC(=S)N(c3ccccc3)C2=O)[C@]12C(=O)Nc1ccc(Br)cc12 (racemic) [Compound 16]
Yes

Please state whether IC50 is below 8 µM for C#CCN1C(=O)[C@]2(c3ccccc31)N(C)C[C@H](c1cccc(Cl)c1)[C@]21NC(=S)N(c2ccc(OC)c(Cl)c2)C1=O [Compound 69]
No

Please state whether IC50 is below 8 µM for COc1ccc([C@H]2CN(C)[C@@]3(C(=O)Nc4ccccc43)[C@@]23NC(=S)N(c2ccc(F)c(Cl)c2)C3=O)cc1 (racemic) [Compound 41]
No

Please state whether IC50 is below 8 µM for CCOc1ccc(N2C(=O)[C@]3(NC2=S)[C@@H](c2ccc(F)cc2)CN(C)[C@@]32C(=O)Nc3ccccc32)cc1 (racemic) [Compound 30]
No

Please state whether IC50 is below 8 µM for CN1C[C@H](c2ccc(Cl)cc2)[C@]2(NC(=S)N(c3ccc(F)c(Cl)c3)C2=O)[C@]12C(=O)Nc1ccc(Cl)cc12 (racemic) [Compound 42]
No

Please state whether IC50 is below 8 µM for CN1C[C@H](c2ccc(Cl)cc2)[C@]2(NC(=S)N(c3ccccc3)C2=O)[C@]12C(=O)Nc1ccc(Br)cc12 (racemic) [Compound 13]
Yes

Please state whether IC50 is below 8 µM for CN1CC(c2ccc(Cl)cc2)C2(NC(=S)N(c3ccc(O)cc3)C2=O)C12C(=O)Nc1ccc(Br)cc12 (stereo not shown) [Compound 51]
No

Please state whether IC50 is below 8 µM for CN1C[C@H](c2cccc(C=O)c2)[C@]2(NC(=S)N(c3ccccc3)C2=O)[C@]12C(=O)Nc1ccc(Cl)cc12 (racemic) [Compound 24]
No

Please state whether IC50 is below 8 µM for COc1ccc(C2=N[C@@H](c3ccc(Cl)cc3)[C@@H](c3ccc(Cl)cc3)N2C(=O)N2CCNC(=O)C2)c(OC(C)C)c1 [Nutlin-3a, reference compound]
Yes
